target: SETD2(1434-1711) (Homo sapiens); construct: SETD2 (1434-1711) Assay; catalogue N/A; experiment: SETD2 (1434-1711) assay; format: biochemical; details: read-out: SETD2 (1434-1711)
Sequence (Q9BYW2 1434-1711): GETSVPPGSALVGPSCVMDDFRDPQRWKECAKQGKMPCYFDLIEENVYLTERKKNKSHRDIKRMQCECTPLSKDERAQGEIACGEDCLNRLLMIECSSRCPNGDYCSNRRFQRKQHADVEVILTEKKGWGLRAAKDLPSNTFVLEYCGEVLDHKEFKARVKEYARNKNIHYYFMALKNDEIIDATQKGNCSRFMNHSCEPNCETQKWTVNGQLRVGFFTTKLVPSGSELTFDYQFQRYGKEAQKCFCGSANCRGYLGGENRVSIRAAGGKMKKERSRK
pIC50: −log10 of the molar value.
quantity measured: pIC50

a: CCC(NC(=O)c1cc2cccc(C)c2[nH]1)c1ncccc1C (centres unmarked)
b: CC[C@H]1CN([C@@H]2CCC[C@@H](NC(=O)c3cc4c(F)ccc(C)c4[nH]3)C2)CCN1C(C)=O
INPUT: Consider entries a and b . Which has the numerically lower pIC50? Your answer should be the label of the entry you select.
OUTPUT: a
(a: 5.27, b: 6.10)
